Task for the reader: assign each of the following binders its reported % Efficacy, in vitro Kasumi cell killing assay.
assay-system: Human CD117 on Kasumi-1 cells or primary human CD34+ bone marrow cells (human, UniProt P10721 26-976)
Sequence (P10721 26-976 limits assumed): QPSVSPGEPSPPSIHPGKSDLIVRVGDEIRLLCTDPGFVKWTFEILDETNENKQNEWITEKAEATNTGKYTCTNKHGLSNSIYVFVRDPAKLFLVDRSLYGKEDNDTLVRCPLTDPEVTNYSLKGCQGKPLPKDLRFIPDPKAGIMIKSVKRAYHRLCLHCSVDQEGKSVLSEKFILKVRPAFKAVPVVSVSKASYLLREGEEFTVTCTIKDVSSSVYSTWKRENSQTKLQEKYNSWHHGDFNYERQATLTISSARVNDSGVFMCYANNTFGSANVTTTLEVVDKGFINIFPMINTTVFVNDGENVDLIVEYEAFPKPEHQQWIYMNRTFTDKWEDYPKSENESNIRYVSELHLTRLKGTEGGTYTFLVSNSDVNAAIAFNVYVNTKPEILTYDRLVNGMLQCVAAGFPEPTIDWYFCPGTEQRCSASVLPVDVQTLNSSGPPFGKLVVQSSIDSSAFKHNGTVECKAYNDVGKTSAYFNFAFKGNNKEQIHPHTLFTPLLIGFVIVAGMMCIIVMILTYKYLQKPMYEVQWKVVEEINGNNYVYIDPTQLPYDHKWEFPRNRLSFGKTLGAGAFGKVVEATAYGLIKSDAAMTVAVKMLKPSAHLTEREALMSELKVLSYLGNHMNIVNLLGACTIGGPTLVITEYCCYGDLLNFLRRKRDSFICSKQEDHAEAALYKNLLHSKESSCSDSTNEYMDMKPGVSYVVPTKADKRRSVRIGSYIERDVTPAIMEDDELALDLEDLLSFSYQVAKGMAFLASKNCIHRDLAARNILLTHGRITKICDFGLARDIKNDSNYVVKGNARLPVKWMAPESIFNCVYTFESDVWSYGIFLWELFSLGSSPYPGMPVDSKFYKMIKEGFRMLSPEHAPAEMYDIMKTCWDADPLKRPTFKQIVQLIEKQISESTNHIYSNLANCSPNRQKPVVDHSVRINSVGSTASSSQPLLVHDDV
assay-notes: cell-based or functional assay
Write the number in % without appending the unit.

Ask: Read off the recorded % Efficacy, in vitro Kasumi cell killing assay for CK6 S239C-PBD (antibody, V domains shown, PBD (DNA cross linker) conjugated to the antibody, Fc modification S239C, DAR 1.7) VH: QVQLVQSGAAVKKPGESLKISCKGSGYRFTSYWIGWVRQMPGKGLEWMGIIYPGDSDTRYSPSFQGQVTISAGKSISTAYLQWSSLKASDTAMYYCARHGRGYNGYEGAFDIWGQGTMVTVSS VL: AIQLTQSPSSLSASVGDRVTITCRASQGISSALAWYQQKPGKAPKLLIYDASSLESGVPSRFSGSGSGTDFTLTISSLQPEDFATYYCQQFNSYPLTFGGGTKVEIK
Reply: 60.7

Ask: Return % Efficacy, in vitro Kasumi cell killing assay (reported value) for this binder: CK6-SET0207 (Fc modification D265C H435A) (antibody, V domains shown, SET0207 payload ('Non-cleavable natural') conjugated to the antibody, Fc modification D265C H435A, DAR 2.0) VH: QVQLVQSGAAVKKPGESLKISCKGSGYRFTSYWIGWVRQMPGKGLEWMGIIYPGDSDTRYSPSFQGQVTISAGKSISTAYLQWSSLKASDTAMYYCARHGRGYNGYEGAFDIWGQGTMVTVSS VL: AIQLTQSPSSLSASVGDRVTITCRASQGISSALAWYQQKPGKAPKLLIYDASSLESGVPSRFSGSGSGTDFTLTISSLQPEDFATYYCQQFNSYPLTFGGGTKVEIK
Reply: 0
